- Test system: RPMI-8226
- Method description: NCI tumour cell line growth inhibition, 48 h
Activity calls are given as the source filed them. No stated cut-off is given here; in the data, active = GI50 up to about 1.1 µM and inactive = higher.
Readout type: GI50

CCCN(CCCN)/[N+]([O-])=N\O: > 100 µM (inactive)
COCCCNC(=O)C1=C(C)NC(C)=C(C(=O)NCCCOC)C1: > 100 µM (inactive)
O=C(CN1CCN(c2ccccc2)CC1)c1ccc2[nH]c(=O)oc2c1: > 100 µM (inactive)
COc1ccc(NC(=O)C(C#N)=C(SC)SC)cc1: > 100 µM (inactive)
Cc1ccc(S(=O)(=O)N(c2ccccc2F)C2CCCCC2O)cc1 (centres undefined): 36.9 µM (inactive)
CCOC(=O)C(SCCO)C(C(=O)OCC)n1ccc(=O)[nH]c1=O (centres undefined): 17.5 µM (inactive)
CC1CCC(=O)C(C(O)CC2CC(=O)N(c3ccccc3)C(=O)C2)C1 (centres undefined): > 100 µM (inactive)
CC(=O)N(C)SCC(NC(=O)C(Cc1ccccc1)NC(=O)OCc1ccccc1)C(=O)NC(Cc1ccccc1)C(=O)NC(Cc1cn(C=O)c2ccccc12)C(=O)NC(CCCCNC(=O)OCc1ccccc1)C(=O)NC(C(=O)NC(CSN(C)C(C)=O)C(=O)NO)C(C)OCc1ccccc1 (centres undefined): > 100 µM (inactive)
COc1ccc(NC2Oc3cc4c(cc3C(c3cc(OC)c(O)c(OC)c3)C2C)OCO4)cc1 (centres undefined): 3.15 µM (inactive)
COC(=O)c1ccc(/C=C/S(=O)(=O)c2ccccc2)cc1: > 100 µM (inactive)
COc1cc(C=O)cc(/C=N/c2ccc(S(N)(=O)=O)cc2)c1O: 7.13 µM (inactive)
CC12Nc3c(Cl)cc(Cl)cc3N1C(=O)c1ccccc12 (centres undefined): > 100 µM (inactive)
COC(=O)C1(F)C(=O)NC(=O)NC1O (centres undefined): > 100 µM (inactive)
Cc1ccccc1-c1c(N)nc(NC#N)nc1C(=O)Nc1ccccc1: > 100 µM (inactive)
COc1cc(/N=C\N(C)C)c2ncccc2c1: 46.5 µM (inactive)
CC(SC1=CC(=O)c2c(O)ccc(O)c2C1=O)C(=O)O (centres undefined): > 52.8 µM (inactive)
CC(C)=C[C@@H]1C[C@H](C)[C@H]2CC[C@H](C)[C@H]3C(=O)C(O)=C(C)C(=O)[C@]123: > 100 µM (inactive)
CC(C)=CCC/C(C)=C/CC/C(C)=C/CC(CO)N(C)CC/C=C(\C)CCC=C(C)C (centres undefined): 3.09 µM (inactive)
NC(Cc1cc(I)c(O)c(I)c1)C(=O)O (centres undefined): > 500 µM (inactive)

----------
- System: MDA-MB-435
- Method description: NCI tumour cell line growth inhibition, 48 h
Activity calls are given as the source filed them. Rule as the data show it: active = GI50 up to about 1.1 µM and inactive = higher. Peptide text beside a SMILES is read from it. * marks the point of attachment. Boc = CC(C)(C)OC(=O)*; OBn = c1ccc(CO*)cc1
Reported GI50 values for a set of molecules
Readout type: GI50

O=c1c2ccccc2n2n1Cc1ccccc1C2: > 100 µM (inactive)
CN=C(n1ccnc1)n1ccnc1: > 100 µM (inactive)
O=C(Nc1nc2c(=O)[nH]cnc2s1)c1ccccc1: 88.5 µM (inactive)
NCCSc1nc2ccccc2c(=O)n1-c1ccccc1: 23.9 µM (inactive)
Cc1ccc(N2CN3OC(=O)N(c4ccccc4)[C@@]3(c3ccccc3)C2)cc1: 26.4 µM (inactive)
CC/C=C/C[C@H](O[Si](C)(C)C(C)(C)C)[C@H]1C[C@H]2O[C@H]([C@@H](O)C#C[Si](C)(C)C)C[C@H]2O1: 12.3 µM (inactive)
CNC(=O)[C@H](Cc1ccccc1)NC(=O)N(CCC#N)CCN(C(=O)N[C@@H](Cc1ccccc1)C(=O)OC)c1ccccc1: > 100 µM (inactive)
CCCN1C(=O)CCC2=C1CCc1c2ccc(Cl)c1Cl: 57.9 µM (inactive)
C/C(=N\N=C(/S)N1CCCCCC1)c1cccc[n+]1[O-]: 9.57 µM (inactive)
O=C1OC(c2ccccc2Br)=N/C1=C/c1ccccc1: 29.2 µM (inactive)
C/C(CC(O)(C(F)(F)F)C(F)(F)F)=N/Nc1ccc([N+](=O)[O-])cc1[N+](=O)[O-]: 3.15 µM (inactive)
CCCc1[nH]c2ccccc2c1-c1c(CCC)[nH]c2ccccc12: 11.9 µM (inactive)
Cn1nc(-c2ccccc2)nc1[N+](=O)[O-]: > 10 µM (inactive)
Cc1ccc2c(c1)CC1(Cc3c(C)cccc3C1=O)C2=O (stereo not given): > 100 µM (inactive)
N#Cc1c(N)c(-c2ccc(Cl)cc2)c(F)c2ccccc12: > 100 µM (inactive)
C[C@]12CC[C@H](OC(=O)Cc3ccc(N(CCCl)CCCl)cc3)CC1=CC[C@@H]1[C@@H]2CC[C@]2(C)C(=O)CC[C@@H]12: > 100 µM (inactive)
CCOC(=O)N/N=C(/N)Cc1ccccc1: > 100 µM (inactive)
COc1cc(C[C@H]2C(=O)OC[C@@H]2Cc2ccc(OC)c(OC)c2)cc(OC)c1: 55.7 µM (inactive)
COc1ccc(CNc2nc3cc(C(F)(F)F)ccc3nc2C(=O)O)cc1: 21.3 µM (inactive)
CC(NC(=O)C(NC(=O)OC(C)(C)C)C(C)C)C(=O)N1CCCC1C(=O)NCC(=O)NC(C(=O)NCC(=O)OCc1ccccc1)C(C)C (stereo not given) (Boc-VAPGVG-OBn; configuration not given here): > 100 µM (inactive)

Where do these numbers come from? They come from ChEMBL document CHEMBL1201862.
